# Tested on: Escherichia coli
# PROTOCOL_DESCRIPTION: Antibacterial activity against Escherichia coli K12 ATCC 23716 after 24 hrs in Mueller-Hinton broth medium
# Format: functional
# MEASUREMENT_PARAMETERS: K12, 24 h
Where a SMILES comes first, the peptide text is derived from it.
METRIC_NAME: MIC (µg/mL)

COMPOUND	METRIC_NAME	READOUT_UNITS	COMPARISON_OPERATOR	VALUE_MEASURED
CC[C@H](C)[C@H](NC(=O)[C@H](CCCNC(=N)N)NC(=O)[C@H](CCCCN)NC(=O)[C@H](CO)NC(=O)[C@@H](NC(=O)[C@@H](N)CCCCN)[C@@H](C)CC)C(=O)N[C@@H](CC(C)C)C(=O)N[C@H](C(=O)NCC(=O)N[C@@H](CCCCN)C(=O)N[C@@H](CCCCN)C(=O)O)[C@@H](C)O (H-KISKRILTGKK-OH)	MIC	µg/mL	>	256
CC[C@H](C)[C@H](NC(=O)[C@H](CCCCN)NC(=O)[C@H](CCCCN)NC(=O)[C@H](CO)NC(=O)[C@@H](NC(=O)CNC(=O)[C@H](CCCNC(=N)N)NC(=O)[C@H](CC(C)C)NC(=O)[C@@H](NC(=O)[C@@H](N)CCCCN)[C@@H](C)CC)C(C)C)C(=O)N[C@@H](CCSC)C(=O)N[C@@H](CCCNC(=N)N)C(=O)N[C@@H](CCCNC(=N)N)C(=O)N[C@H](C(=O)N[C@@H](CC(C)C)C(=O)N[C@H](C(=O)NCC(=O)N[C@@H](CCCCN)C(=O)N[C@@H](CCCCN)C(N)=O)[C@@H](C)O)[C@@H](C)CC (H-KILRGVSKKIMRRILTGKK-NH2)	MIC	µg/mL	=	64
CC[C@H](C)[C@H](NC(=O)[C@H](CCCNC(=N)N)NC(=O)[C@H](CCCCN)NC(=O)[C@H](CO)NC(=O)[C@@H](NC(=O)CNC(=O)[C@H](CC(C)C)NC(=O)[C@@H](NC(=O)[C@@H](N)CCCCN)[C@@H](C)CC)C(C)C)C(=O)N[C@@H](CC(C)C)C(=O)N[C@H](C(=O)NCC(=O)N[C@@H](CCCCN)C(=O)N[C@@H](CCCCN)C(N)=O)[C@@H](C)O (H-KILGVSKRILTGKK-NH2)	MIC	µg/mL	=	256

---

# System: Brucella abortus
# PROTOCOL_DESCRIPTION: Antibacterial activity against Brucella abortus 9.49 (per-) after 48 hrs in Mueller-Hinton broth medium
# Type: functional
Where a SMILES comes first, the peptide text is derived from it.
Below, each entry is listed with its recorded MIC.
METRIC_NAME: MIC (µg/mL)

COMPOUND	TEST_SYSTEM	COMPARISON_OPERATOR	VALUE_MEASURED
CC[C@H](C)[C@H](NC(=O)[C@H](CCCNC(=N)N)NC(=O)[C@H](CCCCN)NC(=O)[C@H](CO)NC(=O)[C@@H](NC(=O)CNC(=O)[C@H](CC(C)C)NC(=O)[C@@H](NC(=O)[C@@H](N)CCCCN)[C@@H](C)CC)C(C)C)C(=O)N[C@@H](CC(C)C)C(=O)N[C@H](C(=O)NCC(=O)N[C@@H](CCCCN)C(=O)N[C@@H](CCCCN)C(N)=O)[C@@H](C)O (H-KILGVSKRILTGKK-NH2)	Brucella abortus	>	128
CC[C@H](C)[C@H](NC(=O)[C@H](CCCCN)NC(=O)[C@H](CCCCN)NC(=O)[C@H](CO)NC(=O)[C@@H](NC(=O)[C@@H](N)CCCCN)[C@@H](C)CC)C(=O)N[C@@H](CCSC)C(=O)N[C@@H](CCCNC(=N)N)C(=O)N[C@H](C(=O)N[C@@H](Cc1ccccc1)C(=O)N[C@@H](CC(C)C)C(=O)N[C@@H](CCCNC(=N)N)C(=O)N[C@@H](CCCNC(=N)N)C(N)=O)[C@@H](C)O (H-KISKKIMRTFLRR-NH2)	Brucella abortus	=	16
CC[C@H](C)[C@H](NC(=O)[C@H](CCCCN)NC(=O)[C@@H](N)CCCCN)C(=O)N[C@@H](CCSC)C(=O)N[C@@H](CCCNC(=N)N)C(=O)N[C@H](C(=O)N[C@@H](Cc1ccccc1)C(=O)N[C@@H](CC(C)C)C(=O)N[C@@H](CCCNC(=N)N)C(=O)N[C@@H](CCCNC(=N)N)C(N)=O)[C@@H](C)O (H-KKIMRTFLRR-NH2)	Brucella abortus	=	128

---

# Test system: Escherichia coli
# PROTOCOL_DESCRIPTION: Antibacterial activity against Escherichia coli K12 ATCC 23716 after 24 hrs in Mueller-Hinton broth medium
# Format: functional
# MEASUREMENT_PARAMETERS: K12, 24 h
Where a SMILES comes first, the peptide text is derived from it.

MOLECULE	TEST_SYSTEM	COMPARISON_OPERATOR	MBC (µg/mL)
CC[C@H](C)[C@H](NC(=O)[C@H](CCCNC(=N)N)NC(=O)[C@H](CCCCN)NC(=O)[C@H](CO)NC(=O)[C@@H](NC(=O)CNC(=O)[C@H](CCCNC(=N)N)NC(=O)[C@H](CC(C)C)NC(=O)[C@@H](NC(=O)[C@@H](N)CCCCN)[C@@H](C)CC)C(C)C)C(=O)N[C@@H](CC(C)C)C(=O)N[C@H](C(=O)NCC(=O)N[C@@H](CCCCN)C(=O)N[C@@H](CCCCN)C(N)=O)[C@@H](C)O (H-KILRGVSKRILTGKK-NH2)	Escherichia coli	>	128
CC[C@H](C)[C@H](NC(=O)[C@H](CCCCN)NC(=O)[C@@H](N)CCCCN)C(=O)N[C@@H](CCSC)C(=O)N[C@@H](CCCNC(=N)N)C(=O)N[C@H](C(=O)N[C@@H](Cc1ccccc1)C(=O)N[C@@H](CC(C)C)C(=O)N[C@@H](CCCNC(=N)N)C(=O)N[C@@H](CCCNC(=N)N)C(N)=O)[C@@H](C)O (H-KKIMRTFLRR-NH2)	Escherichia coli	=	256
CC[C@H](C)[C@H](NC(=O)[C@H](CCCCN)NC(=O)[C@H](CCCCN)NC(=O)[C@H](CO)NC(=O)[C@@H](NC(=O)CNC(=O)[C@H](CCCNC(=N)N)NC(=O)[C@H](CC(C)C)NC(=O)[C@@H](NC(=O)[C@@H](N)CCCCN)[C@@H](C)CC)C(C)C)C(=O)N[C@@H](CCSC)C(=O)N[C@@H](CCCNC(=N)N)C(=O)N[C@H](C(=O)N[C@@H](Cc1ccccc1)C(=O)N[C@@H](CC(C)C)C(=O)N[C@@H](CCCNC(=N)N)C(=O)N[C@@H](CCCNC(=N)N)C(N)=O)[C@@H](C)O (H-KILRGVSKKIMRTFLRR-NH2)	Escherichia coli	=	16
CC[C@H](C)[C@H](NC(=O)[C@H](CCCCN)NC(=O)[C@H](CCCCN)NC(=O)[C@H](CO)NC(=O)[C@@H](NC(=O)[C@@H](N)CCCCN)[C@@H](C)CC)C(=O)N[C@@H](CCSC)C(=O)N[C@@H](CCCNC(=N)N)C(=O)N[C@H](C(=O)N[C@@H](Cc1ccccc1)C(=O)N[C@@H](CC(C)C)C(=O)N[C@@H](CCCNC(=N)N)C(=O)N[C@@H](CCCNC(=N)N)C(N)=O)[C@@H](C)O (H-KISKKIMRTFLRR-NH2)	Escherichia coli	=	16
CC[C@H](C)[C@H](NC(=O)[C@H](CCCCN)NC(=O)[C@H](CCCCN)NC(=O)[C@H](CO)NC(=O)[C@@H](NC(=O)CNC(=O)[C@H](CCCNC(=N)N)NC(=O)[C@H](CC(C)C)NC(=O)[C@@H](NC(=O)[C@@H](N)CCCCN)[C@@H](C)CC)C(C)C)C(=O)N[C@@H](CCSC)C(=O)N[C@@H](CCCNC(=N)N)C(=O)N[C@@H](CCCNC(=N)N)C(=O)N[C@H](C(=O)N[C@@H](CC(C)C)C(=O)N[C@H](C(=O)NCC(=O)N[C@@H](CCCCN)C(=O)N[C@@H](CCCCN)C(N)=O)[C@@H](C)O)[C@@H](C)CC (H-KILRGVSKKIMRRILTGKK-NH2)	Escherichia coli	=	64
CC[C@H](C)[C@H](N)C(=O)N[C@@H](CO)C(=O)N[C@@H](CCCCN)C(=O)N[C@@H](CCCNC(=N)N)C(=O)N[C@H](C(=O)N[C@@H](CC(C)C)C(=O)N[C@H](C(=O)NCC(=O)N[C@@H](CCCCN)C(=O)N[C@@H](CCCCN)C(=O)O)[C@@H](C)O)[C@@H](C)CC (H-ISKRILTGKK-OH)	Escherichia coli	>	256

---

This listing pairs compounds with measured MBC.
# Test system: Escherichia coli
# PROTOCOL_DESCRIPTION: Antibacterial activity against Escherichia coli ATCC 25922 after 24 hrs in Mueller-Hinton broth medium
# Format: functional
# MEASUREMENT_PARAMETERS: ATCC 25922, 24 h
Where a SMILES comes first, the peptide text is derived from it.
METRIC_NAME: MBC (µg/mL)

COMPOUND	READOUT_UNITS	COMPARISON_OPERATOR	VALUE_MEASURED
CC[C@H](C)[C@H](NC(=O)[C@H](CCCNC(=N)N)NC(=O)[C@H](CCCCN)NC(=O)[C@H](CO)NC(=O)[C@@H](NC(=O)CNC(=O)[C@H](CC(C)C)NC(=O)[C@@H](NC(=O)[C@@H](N)CCCCN)[C@@H](C)CC)C(C)C)C(=O)N[C@@H](CC(C)C)C(=O)N[C@H](C(=O)NCC(=O)N[C@@H](CCCCN)C(=O)N[C@@H](CCCCN)C(N)=O)[C@@H](C)O (H-KILGVSKRILTGKK-NH2)	µg/mL	>	256
CC[C@H](C)[C@H](N)C(=O)N[C@@H](CO)C(=O)N[C@@H](CCCCN)C(=O)N[C@@H](CCCNC(=N)N)C(=O)N[C@H](C(=O)N[C@@H](CC(C)C)C(=O)N[C@H](C(=O)NCC(=O)N[C@@H](CCCCN)C(=O)N[C@@H](CCCCN)C(=O)O)[C@@H](C)O)[C@@H](C)CC (H-ISKRILTGKK-OH)	µg/mL	>	256
CC[C@H](C)[C@H](NC(=O)[C@H](CCCCN)NC(=O)[C@H](CCCCN)NC(=O)[C@H](CO)NC(=O)[C@@H](NC(=O)[C@@H](N)CCCCN)[C@@H](C)CC)C(=O)N[C@@H](CCSC)C(=O)N[C@@H](CCCNC(=N)N)C(=O)N[C@H](C(=O)N[C@@H](Cc1ccccc1)C(=O)N[C@@H](CC(C)C)C(=O)N[C@@H](CCCNC(=N)N)C(=O)N[C@@H](CCCNC(=N)N)C(N)=O)[C@@H](C)O (H-KISKKIMRTFLRR-NH2)	µg/mL	=	128
CC[C@H](C)[C@H](NC(=O)[C@H](CCCCN)NC(=O)[C@H](CCCCN)NC(=O)[C@H](CO)NC(=O)[C@@H](NC(=O)CNC(=O)[C@H](CCCNC(=N)N)NC(=O)[C@H](CC(C)C)NC(=O)[C@@H](NC(=O)[C@@H](N)CCCCN)[C@@H](C)CC)C(C)C)C(=O)N[C@@H](CCSC)C(=O)N[C@@H](CCCNC(=N)N)C(=O)N[C@H](C(=O)N[C@@H](Cc1ccccc1)C(=O)N[C@@H](CC(C)C)C(=O)N[C@@H](CCCNC(=N)N)C(=O)N[C@@H](CCCNC(=N)N)C(N)=O)[C@@H](C)O (H-KILRGVSKKIMRTFLRR-NH2)	µg/mL	=	32
CC[C@H](C)[C@H](NC(=O)[C@H](CCCCN)NC(=O)[C@@H](N)CCCCN)C(=O)N[C@@H](CCSC)C(=O)N[C@@H](CCCNC(=N)N)C(=O)N[C@H](C(=O)N[C@@H](Cc1ccccc1)C(=O)N[C@@H](CC(C)C)C(=O)N[C@@H](CCCNC(=N)N)C(=O)N[C@@H](CCCNC(=N)N)C(N)=O)[C@@H](C)O (H-KKIMRTFLRR-NH2)	µg/mL	>	256
